Assay: First-order nonenzymatic deamidation of pentapeptides in Tris buffer
Assay type: physicochemical
Conditions: pH 7.4, 37.0° C., 0.15 M Tris HCl; Asn pentapeptides
Protocol: One of the discoveries made was that the sequence dependence of deamidation is much richer and covers a wider range than previously thought. […] It is also based on pentapeptide rates measure in 37° C., pH 7.4, 0.15 M Tris buffer. In this case, the 52 values shown in bold were measured, and the rest of the values were derived from surface fitting. […]
Where no end group is shown, it is not given here.
Each entry below carries its recorded First-Order Deamidation Halftimes of GlyXxxAsnYyyGly.
The figure you give is taken to be in days; do not add the unit.

substance="GlyAmCysAsnTyrGly (CNYG; not fully specified (N-terminus); printed as GlyAmCysAsnTyrGly; also: glycinamide shown before Cys, linkage not given here)" value_observed=78.8
substance="GlyAmCysAsnTrpGly (CNWG; not fully specified (N-terminus); printed as GlyAmCysAsnTrpGly)" value_observed=81.3

query: Requested read-out: First-Order Deamidation Halftimes of GlyXxxAsnYyyGly. Entry: `GlyAspAsnAmCysGly`
result: 45.8

query: Requested read-out: First-Order Deamidation Halftimes of GlyXxxAsnYyyGly. Entry: `GlyAmCysAsnAmCysGly`
result: 39.3

* * *

assay: First-order nonenzymatic deamidation of pentapeptides in Tris buffer; assay type: physicochemical; settings: pH 7.4, 37.0° C., 0.15 M Tris HCl; Asn pentapeptides
Where no end group is shown, it is not given here.
PARAMETER_MEASURED: First-Order Deamidation Halftimes of GlyXxxAsnYyyGly (days)
The figure you give is taken to be in days; do not add the unit.

query: Requested read-out: First-Order Deamidation Halftimes of GlyXxxAsnYyyGly. Entry: `GlyArgAsnAmCysGly`
result: 42.3

query: Requested read-out: First-Order Deamidation Halftimes of GlyXxxAsnYyyGly. Entry: `GlyGlyAsnAmCysGly`
result: 27.6

query: Requested read-out: First-Order Deamidation Halftimes of GlyXxxAsnYyyGly. Entry: GlyAmCysAsnThrGly (CNTG; not fully specified (N-terminus); printed as GlyAmCysAsnThrGly)
result: 41.7

query: Requested read-out: First-Order Deamidation Halftimes of GlyXxxAsnYyyGly. Entry: GlyAmCysAsnGlyGly (CNGG; not fully specified (N-terminus); printed as GlyAmCysAsnGlyGly)
result: 1.14

query: Requested read-out: First-Order Deamidation Halftimes of GlyXxxAsnYyyGly. Entry: GlyAmCysAsnArgGly (CNRG; not fully specified (N-terminus); printed as GlyAmCysAsnArgGly)
result: 58.8

query: Requested read-out: First-Order Deamidation Halftimes of GlyXxxAsnYyyGly. Entry: `GlyTyrAsnAmCysGly`
result: 33.3

query: Requested read-out: First-Order Deamidation Halftimes of GlyXxxAsnYyyGly. Entry: GlyAmCysAsnAlaGly (CNAG; not fully specified (N-terminus); printed as GlyAmCysAsnAlaGly)
result: 21.5

query: Requested read-out: First-Order Deamidation Halftimes of GlyXxxAsnYyyGly. Entry: `GlyTrpAsnAmCysGly`
result: 42.9

query: Requested read-out: First-Order Deamidation Halftimes of GlyXxxAsnYyyGly. Entry: `GlyAlaAsnAmCysGly`
result: 40.6

query: Requested read-out: First-Order Deamidation Halftimes of GlyXxxAsnYyyGly. Entry: GlyAmCysAsnAspGly (CNDG; not fully specified (N-terminus); printed as GlyAmCysAsnAspGly)
result: 32.9
